Data provenance is patent US5753709A.

# tested_system: human melatonin receptor (human ML1A) (Homo sapiens, UniProt P48039)
# Construct: expressed in transfected cells; host or cells: COS-1 cells (transient, pcDNAI, DEAE-dextran); membrane homogenates
# Sequence (P48039 whole entry): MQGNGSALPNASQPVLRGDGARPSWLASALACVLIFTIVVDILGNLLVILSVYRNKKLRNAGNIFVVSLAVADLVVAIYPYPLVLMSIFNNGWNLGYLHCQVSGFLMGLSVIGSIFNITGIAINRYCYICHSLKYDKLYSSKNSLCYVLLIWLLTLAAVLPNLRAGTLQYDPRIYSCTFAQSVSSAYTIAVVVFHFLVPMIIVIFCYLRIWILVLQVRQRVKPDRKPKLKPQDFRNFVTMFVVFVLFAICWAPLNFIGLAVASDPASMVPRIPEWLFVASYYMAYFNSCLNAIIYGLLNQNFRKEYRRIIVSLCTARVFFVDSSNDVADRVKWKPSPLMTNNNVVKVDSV
# experiment_summary: Melatonergic binding: displacement of 2-[125I]-iodomelatonin at the human melatonin receptor (human ML1A in COS-1 membranes)
# assay_setup: Table 4; displacement of 2[125I]-Iodomelatonin (100 pM), 37° C., 1 hour
measured_property: IC50

{"compound": "CCCCC(=O)NC[C@@H]1C[C@H]1c1cccc(OC)c1 (relative stereo)", "observed_value": "40 to 250 nM"}
{"compound": "COc1ccc(F)c([C@@H]2C[C@H]2CNC(=O)C(C)C)c1 (relative stereo)", "observed_value": "40 to 250 nM"}
{"compound": "CCCC(=O)NC[C@@H]1C[C@H]1c1cc(OC)ccc1I (relative stereo)", "observed_value": "< 5 nM"}
{"compound": "CCCC(=O)NC[C@@H]1C[C@H]1c1cccc(OC)c1 (relative stereo)", "observed_value": "< 5 nM"}
{"compound": "CCCC(=O)N(Cc1ccccc1)C[C@@H]1C[C@H]1c1cccc(OC)c1 (relative stereo)", "observed_value": "40 to 250 nM"}
{"compound": "COCC(=O)NC[C@@H]1C[C@H]1c1cccc(OC)c1 (relative stereo)", "observed_value": "5 to 40 nM"}
{"compound": "COc1cccc([C@@H]2C[C@H]2CNC(=O)C(C)C)c1 (relative stereo)", "observed_value": "5 to 40 nM"}
{"compound": "COc1cccc([C@@H]2C[C@H]2CNC(C)=O)c1 (relative stereo)", "observed_value": "5 to 40 nM"}
{"compound": "CCC(=O)NC[C@@H]1C[C@H]1c1cccc(OC)c1 (relative stereo)", "observed_value": "< 5 nM"}

* * *

// reported IC50 for each item listed
# tested_system: human melatonin receptor (human ML1A) (Homo sapiens)
# Construct: expressed in transfected cells; host or cells: COS-1 cells (transient, pcDNAI, DEAE-dextran); membrane homogenates
# experiment_summary: Melatonergic binding: displacement of 2-[125I]-iodomelatonin at the human melatonin receptor (human ML1A in COS-1 membranes)
# assay_setup: Table 5; displacement of 2[125I]-Iodomelatonin (100 pM), 37° C., 1 hour

{"compound": "CCCCCCCCCCOc1cccc([C@@H]2C[C@H]2CNC(=O)CCC)c1 (relative stereo)", "IC50": "0.005 to 0.04 µM"}
{"compound": "CCCC(=O)NC[C@@H]1C[C@H]1c1cccc(OCCO)c1 (relative stereo)", "IC50": "0.04 to 0.25 µM"}
{"compound": "CCCC(=O)NC[C@@H]1C[C@H]1c1cccc(OCCCCC2CCCCC2)c1 (relative stereo)", "IC50": "0.005 to 0.04 µM"}
{"compound": "CCCCCCCCCCCCOc1cccc([C@@H]2C[C@H]2CNC(=O)CCC)c1 (relative stereo)", "IC50": "0.005 to 0.04 µM"}

* * *

# tested_system: human melatonin receptor (human ML1A) (Homo sapiens, UniProt P48039)
# Construct: expressed in transfected cells; host or cells: COS-1 cells (transient, pcDNAI, DEAE-dextran); membrane homogenates
# experiment_summary: Melatonergic binding: displacement of 2-[125I]-iodomelatonin at the human melatonin receptor (human ML1A in COS-1 membranes)
# assay_setup: Table 5; displacement of 2[125I]-Iodomelatonin (100 pM), 37° C., 1 hour
measured_property: IC50

{"compound": "CCCC(=O)NC[C@@H]1C[C@H]1c1cccc(OCCCCCc2ccccc2)c1 (relative stereo)", "measured_property": "IC50", "observed_value": "< 5 nM"}
{"compound": "CCCC(=O)NC[C@@H]1C[C@H]1c1cccc(OCCCn2cccc2)c1 (relative stereo)", "measured_property": "IC50", "observed_value": "5 to 40 nM"}
{"compound": "CCCC(=O)NC[C@@H]1C[C@H]1c1cccc(OCCCOc2ccccc2)c1 (relative stereo)", "measured_property": "IC50", "observed_value": "5 to 40 nM"}
{"compound": "CCCC(=O)NC[C@@H]1C[C@H]1c1cccc(OCCc2ccccc2F)c1 (relative stereo)", "measured_property": "IC50", "observed_value": "5 to 40 nM"}
{"compound": "CCCC(=O)NC[C@@H]1C[C@H]1c1cc(OCCCc2cccc(OC)c2)ccc1I (single isomer, unassigned)", "measured_property": "IC50", "observed_value": "5 to 40 nM"}
{"compound": "CC(C)C(=O)NC[C@@H]1C[C@H]1c1cccc(F)c1 (single isomer, unassigned)", "measured_property": "IC50", "observed_value": "250 to 600 nM"}
{"compound": "CCCC(=O)NC[C@@H]1C[C@H]1c1cccc(OCCCF)c1 (relative stereo)", "measured_property": "IC50", "observed_value": "40 to 250 nM"}
{"compound": "CCCCCCCCCCCOc1cccc([C@@H]2C[C@H]2CNC(=O)CCC)c1 (relative stereo)", "measured_property": "IC50", "observed_value": "5 to 40 nM"}
{"compound": "CCCC(=O)NC[C@@H]1C[C@H]1c1cccc(OCCCC2CCCC2)c1 (relative stereo)", "measured_property": "IC50", "observed_value": "< 5 nM"}
{"compound": "CCCC(=O)NC[C@@H]1C[C@H]1c1cccc(OCCCc2ccncc2)c1 (relative stereo)", "measured_property": "IC50", "observed_value": "40 to 250 nM"}
{"compound": "CCCC(=O)NC[C@@H]1C[C@H]1c1cccc(OCCCc2ccccc2)c1 (relative stereo)", "measured_property": "IC50", "observed_value": "5 to 40 nM"}

* * *

# tested_system: human melatonin receptor (human ML1A) (Homo sapiens, UniProt P48039)
# Construct: expressed in transfected cells; host or cells: COS-1 cells (transient, pcDNAI, DEAE-dextran); membrane homogenates
# experiment_summary: Melatonergic binding: displacement of 2-[125I]-iodomelatonin at the human melatonin receptor (human ML1A in COS-1 membranes)
# assay_setup: Table 5; displacement of 2[125I]-Iodomelatonin (100 pM), 37° C., 1 hour
pIC50: −log10 of the molar value.

{"compound": "CCCC(=O)NC[C@@H]1C[C@H]1c1cccc(OCCCCCCc2ccccc2)c1 (relative stereo)", "pIC50": "6.60 to 7.40"}
{"compound": "CCCC(=O)NC[C@@H]1C[C@H]1c1cccc(CC)c1 (relative stereo)", "pIC50": "7.40 to 8.30"}
{"compound": "CCCC(=O)NC[C@@H]1C[C@H]1c1cccc(OCCC(C)CC(C)(C)C)c1 (relative stereo)", "pIC50": "7.40 to 8.30"}
{"compound": "CCCC(=O)NC[C@@H]1C[C@H]1c1cccc(OCCC=C(C)C)c1 (relative stereo)", "pIC50": "7.40 to 8.30"}
{"compound": "CCCC(=O)NC[C@@H]1C[C@H]1c1cccc(OCCCCC(C)C)c1 (relative stereo)", "pIC50": "7.40 to 8.30"}
{"compound": "CCCC(=O)NC[C@@H]1C[C@H]1c1cccc(Br)c1 (relative stereo)", "pIC50": "7.40 to 8.30"}
{"compound": "C=CCOc1cccc([C@@H]2C[C@H]2CNC(=O)CCC)c1 (relative stereo)", "pIC50": "7.40 to 8.30"}
{"compound": "CCCC(=O)NC[C@@H]1C[C@H]1c1cccc(OCCCCC(C)(C)C#N)c1 (relative stereo)", "pIC50": "6.60 to 7.40"}
